Data provenance is ChEMBL document CHEMBL3616423.

// reported IC50 for each item listed
System: HeLa
Assay: Cytotoxicity against human HeLa cells assessed as cell viability after 5 days by cell viability analyzer
Type: functional, cell-based
Conditions: 120 h
Please respond with the number in nM and leave the unit unwritten.

>>> df
                                   molecule  observable  reported_result
0  COc1ccc(C(c2cc(O)c3c(c2O)C(=O)c2ccccc2C3=O)N(CCCl)CCCl)cc1 (centres undefined)        IC50              457
1  COc1cc(C(c2ccccc2)N(CCCl)CCCl)c(O)c2c1C(=O)c1ccccc1C2=O (centres undefined)        IC50              480
2  Cc1ccc(C(c2cc(O)c3c(c2O)C(=O)c2ccccc2C3=O)N(CCCl)CCCl)cc1C (centres undefined)        IC50              234

Request: Under HeLa: IC50 value of CCC(c1cc(O)c2c(c1O)C(=O)c1ccccc1C2=O)N(CCCl)CCCl (centres undefined) ?
Result: 105
